Just for reference, PubChem BioAssay is where these values come from.

experimentSummary: S6 kinase pathway phospho-S6 level changes – cell-based, A549, cytoblot, luminescence, serum-stimulated, primary screen (AID 1158);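 further: serum-stimulated A549 lung adenocarcinoma cells; signal is phosphorylated S6 detected by cytoblot immunostaining with HRP secondary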
testContext: 5 h, higher = more signal
assayReadout: z-score
Give only the figure.

Use the examples below as a reference point.
{"structureString": "COc1c(C)cc(-c2cc3c(c(-c4ccccc4)n2)[Si](C(C)C)(C(C)C)O[C@H]3c2ccccc2)cc1C", "assayReadout": "z-score", "numericResult": 0.291}
{"structureString": "NC(=O)NCC#Cc1ccc2c(c1)[C@]1(C(=O)N2)[C@H](C(=O)NC[C@H](O)c2ccccc2)[C@H]2C(=O)O[C@H](c3ccccc3)[C@H](c3ccccc3)N2[C@@H]1c1ccccc1OCCO", "assayReadout": "z-score", "numericResult": 1.5}
{"structureString": "CCCC[C@@H]1C[C@H]1[C@@H](NC(=O)c1ccco1)c1ccccc1", "assayReadout": "z-score", "numericResult": -0.446}

Enquiry: Which z-score value is on record for `CC(C)(C)OC(=O)CC[C@@]1(C(N)=O)N=C(c2ccc(OCCCO)cc2)O[C@@H]1c1ccccc1N=[N+]=[N-]` ?
Return: -0.207
